The reported measurements were obtained from paper PMC11676098.

Listing: IC50 of selected compounds
# target.or.system: E. coli DNA gyrase B (Escherichia coli)
Could you give me the number in µM? Just the number is fine.

N#Cc1c(-c2cn(-c3ccccc3)nc2-c2cc3ccccc3o2)c(C#N)c(=O)n2c1NCCN2 [compound 9] = 9.8

Next:
Q) Determine reported IC50 for CC(=O)n1c(C)nc2c(C#N)c(-c3cn(-c4ccccc4)nc3-c3cc4ccccc4o3)c(C#N)c(=O)n21 [compound 10] ; test system: E. coli DNA gyrase B (Escherichia coli).
A) 32.2
